Origin of the recorded values: PubChem BioAssay (NCI)

- System: CCRF-CEM leukemia
- Test Summary: NCI-60 one-dose screen, 48 h
- Measurement Parameters: 10 µM unless noted
Compounds without any hit were thinned out: in the full panel of roughly 83,000, 20% have a hit. Calls of active or inactive are those of the source. Rule for the calls: active = growth percent below 10; inactive = the rest.
Bench note: report the call from active, inactive

Reference set, count: 5
| Compound | Cat |
| --- | --- |
| O=C(Cn1c(C(=O)c2ccccc2)nc2ccccc21)c1ccc(F)cc1 | inactive |
| O=S(=O)(NCCCNc1nccc(-c2c(-c3cccc(F)c3)nc3sccn23)n1)c1cccc2ccccc12 | inactive |
| O=[N+]([O-])CC(c1ccccc1)c1c[nH]c2ccccc12 (stereo not given) | inactive |
| COc1cc2c3c(c4c5ccccc5[nH]c4c2c(OC)c1OC)C(=O)N(CCN1CCOCC1)C3=O | inactive |
| C[C@H]1[C@H]2[C@H]3CC[C@@H]4[C@@]5(C)CC[C@H](O)C(C)(C)[C@@H]5CC[C@@]4(C)[C@]3(C)CC[C@]23CO[C@]1(C)[C@@H](C(=O)/C=C\c1ccco1)C3 | inactive |

Query block: I would be grateful if you could indicate the recorded call for `CCN(c1ccccc1)S(=O)(=O)c1cc([N+](=O)[O-])ccc1Cl` .
Result block: inactive
